Data origin: patent US20150139990A1

experimental target: T1, human CD81 mutant I194A (human, UniProt P60033 1-236, limits assumed)
T1 construct: as m30; not shown: C-terminal V5 and 6xHis tags
T1 sequence: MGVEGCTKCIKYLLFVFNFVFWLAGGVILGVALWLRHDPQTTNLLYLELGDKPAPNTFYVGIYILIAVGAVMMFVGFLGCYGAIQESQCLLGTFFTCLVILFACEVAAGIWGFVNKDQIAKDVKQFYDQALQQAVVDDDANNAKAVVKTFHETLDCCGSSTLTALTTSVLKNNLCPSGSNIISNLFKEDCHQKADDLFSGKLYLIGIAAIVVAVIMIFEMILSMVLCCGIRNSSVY
assay procedure: ELISA
Entries and their relative binding affinity values follow.
quantity name: relative binding affinity

>>> val("002-A07 N113S (antibody, human IgG4 S228P, lambda, V domains shown, IgG4 S228P; glycosylation site mutant of 002-A07 VL) VH: EVQLLESGGGLVQPGGSLRLSCAASGFTFSSNYMSWVRQAPGKGLEWVSYISSSSTYTDYADSVKGRFTISRDNSKNTLYLQMNSLRAEDTAVYYCARYSYGRDNFDYWGQGTLVTVSS VL: QSVLTQPPSASGTPGQRVTISCTGSTSNIGAGYDTHWYQQLPGTAPKLLIYGNSNRPSGVPDRFSGSKSGTSASLAISGLRSEDEADYYCQSYDTSLSVWVFGGGTKLTVLG")
"< 20%"
>>> val("002-F07 (antibody, human IgG4 S228P, lambda, V domains shown, IgG4 S228P) VH: EVQLLESGGGLVQPGGSLRLSCAASGFTFSSNYMSWVRQAPGKGLEWVSYISSSSTYTDYADSVKGRFTISRDNSKNTLYLQMNSLRAEDTAVYYCARYSYGRDSFDYWGQGTLVTVSS VL: QSVLTQPFSASGTPGQRVTISCTGSTSNIGAGFDTHWYQQLPGTAPKLLIYGNSNRPSGVPDRFSGSKSGTTASLAISGLRSEDEADYYCQSYDTNLSVWVFGGGTKLTVLG")
"< 20%"
>>> val("003-A11 (antibody, human IgG4 S228P, lambda, V domains shown, IgG4 S228P) VH: EVQLLESGGGLVQPGGSLRLSCAASGFTFGSNYMSWVRQAPGKGLEWVSYISSSSTYTDYADSVKGRFTISRDNSKNTLYLQMNSLRAEDTAVYYCARYSYGRDNFDYWGQGTLVTVSS VL: QSVLTQPPSASGTPGQRVTISCTGSTSNIGAGYDTHWYQQLPGTAPKLLIYGNSNRPSGVPDRFSGSKSGTSASLAISGLRSEDEADYYCQSYDTNLSGWVFGGGTKLTVLG")
"< 20%"
